- Test system: OVCAR-8 ovarian
- protocolDetails: NCI tumour cell line growth inhibition, 48 h
This section presents molecules with their documented TGI values.

The cases that follow already have their TGI on record.
molecule	TGI
COc1c(C)c(C/C=C(\C)CCCCO[Si](C(C)C)(C(C)C)C(C)C)c(OC)c2ccccc12	> 100 µM
CN(NC(=O)c1ccco1)C1=NCCN1	> 100 µM
Cc1[nH]c2ccccc2c1C1Cc2ccccc2N1C(=O)/C=C/C=C/c1ccccc1 (stereo unspecified)	> 100 µM

Can you look up the measured TGI of `CC1=CC(=NC(=O)CBr)C=C/C1=N\S(=O)(=O)c1ccccc1` for me?
11.1 µM

// same read-out, input: CCOP(C)(=O)C(Cc1c[nH]c2ccccc12)C(=O)O (stereo unspecified)
> 100 µM

// same read-out, input: CC(=O)C1C(=O)C(=O)N(c2cccc(C)c2C)C1=O (stereo unspecified)
> 100 µM

###

- Tested on: SK-MEL-2 melanoma
- protocolDetails: NCI tumour cell line growth inhibition, 48 h
endpoint: TGI (µM)
Just the number please, in µM, no unit attached.

The cases that follow already have their TGI on record.
molecule	TGI, µM
C=C1C(=O)O[C@@H]2[C@H]1C[C@@H](O)[C@H](C)[C@@](O)(C(=O)/C=C/C)[C@H]2OC(=O)C(C)CC (stereo partly drawn)	84.1
C/C=C(\C)C(=O)N[C@H]1CC[C@]2(C)C3CC[C@@]4(C)C(CC[C@@H]4C(C)N(C)C)C3CCC2[C@H]1OC(C)=O (stereo partly drawn)	4.48
CC1=C[C@H]2c3c(c(O)c(O)c4oc5c(C)cccc5c(=O)c34)[C@H](c3cc(O)c(O)c4oc5c(C)cccc5c(=O)c34)[C@H]2C(C)(C)C1	5.1
COC(=O)/C=C1/CCC2[C@@H](C(=O)CC3[C@]2(C)CCC[C@@]3(C)C(=O)OC)C1C (stereo partly drawn)	35.7
C/C=C/c1c(O)c(=O)c2c(OC)cc(OC)c3c4c(OC)cc(OC)c5c(=O)c(O)c(/C=C/C)c(c1c23)c54	24.9
COc1cc(C2c3cc4c(cc3OC(NC3CCCCC3)C2C)OCO4)cc(OC)c1OC (stereo not drawn)	47.8
COc1c(Cl)c2c(c(OC)c1OC)-c1ccc(OC)c(=O)c(Cl)c1C(NC(C)=O)CC2 (stereo not drawn)	7.87

Can you look up the measured TGI of `Cn1nccc1Nc1nccc(-c2cc3c(s2)C(C)(C)N(CCN2CCOCC2)C3=O)n1` for me?
6.74

###

- System: SK-MEL-28 melanoma
- protocolDetails: NCI tumour cell line growth inhibition, 48 h
endpoint: TGI (µM)
Just the number please, in µM, no unit attached.

compound	endpoint	valueMeasured
CC1=NN(c2cccc(Cl)c2)C2(SCC(=O)N2c2nc3ccccc3s2)/C1=C\c1ccc(Cl)cc1 (stereo not given)	TGI	72.4
CC1=CC(=NC(=O)CBr)C=C/C1=N\S(=O)(=O)c1ccccc1	TGI	19.4
CN(C)c1ccc(N2Cc3ccccc3OC3=C2C(=O)c2c(O)ccc(O)c2C3=O)cn1	TGI	0.762

Can you look up the measured TGI of CCN(CC)CCCC(C)Nc1cnc(C(=O)Nc2ccc(Cl)c3cccnc23)cn1 (stereo not given) for me?
3.28

###

This section presents compounds with their documented TGI values.
- Tested on: SF-539 CNS
- protocolDetails: NCI tumour cell line growth inhibition, 48 h

Can you look up the measured TGI of C/C=C(\C)C(=O)N[C@H]1CC[C@]2(C)C3CC[C@@]4(C)C(CC[C@@H]4C(C)N(C)C)C3CCC2[C@H]1OC(C)=O (stereo partly drawn) for me?
2.53 µM

// same read-out, input: `CC1=C[C@H]2c3c(c(O)c(O)c4oc5c(C)cccc5c(=O)c34)[C@H](c3cc(O)c(O)c4oc5c(C)cccc5c(=O)c34)[C@H]2C(C)(C)C1`
3.65 µM

// same read-out, input: `Cc1ccc(/C(O)=C/c2nc3ccccc3oc2=O)cc1`
> 100 µM

// same read-out, input: `COc1ccc2nc(-c3cc(-c4cc(OC)c(OC)c(OC)c4)n[nH]3)[nH]c2c1`
9.71 µM

// same read-out, input: CC1(C)COC(C23C4C5C2C2C3C4C52I)=N1 (stereo not drawn)
> 100 µM

// same read-out, input: `COC(=O)CCC(=O)CC(=O)C1=NS(=O)(=O)c2nc(S(N)(=O)=O)c(Cl)cc2N1`
> 100 µM

// same read-out, input: `Cc1cc(C)nc(NS(=O)(=O)c2ccc(Nc3nncc(=O)n3N)cc2)n1`
> 100 µM

// same read-out, input: `Cn1cc(C2=C(c3cccc4ccccc34)C(=O)NC2=O)c2ccccc21`
14.2 µM

// same read-out, input: COc1cc(C2=NN(C)C(c3ccc([N+](=O)[O-])o3)C2)cc(OC)c1OC (stereo not drawn)
> 100 µM

// same read-out, input: CCOC(=O)C12CCCC1(O)N(NC(=O)c1ccccc1)C(C)=C2C(=O)OC (stereo not drawn)
> 100 µM

// same read-out, input: `Oc1ccc(-c2nnc3sc(-c4ccc(F)c(Oc5ccccc5)c4)nn23)cc1`
65 µM
